# System: LOX IMVI melanoma
# ASSAY_OVERVIEW: NCI tumour cell line growth inhibition, 48 h
Provide the reported GI50 of each item.

N#Cc1ncc(-c2ccc(C(F)(F)F)cc2)c(NCc2cc(C(F)(F)F)cc(C(F)(F)F)c2)n1 | 3020 nM

Could I get GI50 for every one of these entries?
1. COC(=O)C1=C(C)NC(C)=C(C(=O)OC)C1/C=C(\Cl)c1ccc(Cl)c(Cl)c1
2. CN(CCCCCl)P(=O)(OCc1ccc([N+](=O)[O-])o1)OCC1OC(n2ccc(N)nc2=O)C(F)(F)C1O (centres undefined)
3. Cn1cc(C2=C(c3cn(CCO)c4ccccc34)C(=O)NC2=O)c2ccccc21
4. CCOc1ccc(-c2cnnn2-c2nonc2-n2cccc2)cc1
5. COc1cc(-n2cc(-c3ccc(F)cc3)nc2SCc2ccccc2)cc(OC)c1OC

Solution:
["11400 nM", "754 nM", "2770 nM", "460 nM", "> 100000 nM"]

Could I get GI50 for every one of these entries?
1. CC(C)c1c(C(=O)Nc2ccccc2)c(-c2ccccc2)c(-c2ccc(F)cc2)n1CC[C@@H]1CC=CC(=O)O1
2. COc1cc(-c2nc3sccn3c2-c2ccnc(NCCNS(=O)(=O)c3ccc(Cl)cc3)n2)ccc1F
3. COc1cc2cc(C(=O)CCC(=O)O)sc2cc1OC

Solution:
1: 1630 nM; 2: 3390 nM; 3: > 100000 nM

* * *

Provide the reported TGI of each item.
# System: M19-MEL melanoma
# ASSAY_OVERVIEW: NCI tumour cell line growth inhibition, 48 h

C#CCNC(=O)NCCCC(NC(C)=O)C(=O)NCc1ccccc1 (stereo unspecified) | > 100 µM
CCCOC(=O)C1CCC(=O)N1C(=O)C(C)Cl (stereo unspecified) | > 100 µM
N#CC(C(=O)/C(=N/NC(=O)c1ccccc1O)C(C#N)c1ccccc1)c1ccccc1 (stereo unspecified) | > 100 µM
CC1OC(n2ccc(=O)[nH]c2=O)C=C(OC(=O)c2ccccc2)C1=O (stereo unspecified) | > 100 µM
CN(C)CCC(O)(c1ccccc1)C(O)(CCN(C)C)c1ccccc1 (stereo unspecified) | > 100 µM
COc1ccc(/C(Cl)=C(/c2ccc(O)cc2)c2ccc(OCCN(C)C)cc2)cc1 | 18.9 µM

Could I get TGI for every one of these entries?
1. Nc1nc(NCCO)c(N=O)c(=O)[nH]1
2. CCCCCCCc1cc(OC(=O)c2c(C)cc(OC)cc2O)cc(O)c1C(=O)O
3. CN(C)CCN(C)CC1COC(C)(C)O1 (stereo unspecified)
4. C/C(=N\NC(N)=S)c1cc(C)c(C)cc1C
5. O=C(CC(=O)Nc1cccc(Cl)c1)NNCC(=O)Nc1nnc(-c2ccccc2)s1

Solution:
1: > 100 µM; 2: 50.7 µM; 3: > 100 µM; 4: 74.2 µM; 5: > 100 µM

* * *

# System: SK-MEL-28 melanoma
# ASSAY_OVERVIEW: NCI tumour cell line growth inhibition, 48 h
READOUT: TGI

Fc1ccc(-c2nn3c(-c4ccc(F)c(Cl)c4)nnc3s2)cc1 | > 50 µM
O=C(Nc1nc(C23CC4CC(CC(C4)C2)C3)cs1)c1c(O)c2ccccc2[nH]c1=O | > 100 µM
CC1(C)/C(=N\O)C2(C#N)CCC1C2 (stereo not drawn) | > 100 µM
S=C1Cc2c(-c3ccc(Cl)cc3)cc(-c3ccccc3)nc2-c2ccccc2N1 | > 100 µM

Could I get TGI for every one of these entries?
1. CN(CCCCCl)P(=O)(OCc1ccc([N+](=O)[O-])o1)OCC1OC(n2ccc(N)nc2=O)C(F)(F)C1O (stereo not drawn)
2. COC(=O)[C@@H]1C=C[C@H](OC2OC(COC(C)=O)C(OC(C)=O)C(OC(C)=O)C2OC(C)=O)n2c(=O)c3ccccc3c(=O)n21 (stereo partly drawn)
3. O=C1Cc2c([nH]c3c(Cl)cccc23)-c2ccccc2N1
4. CN(C)CCN(C)CC1COC(C)(C)O1 (stereo not drawn)
5. Cc1cc(NS(=O)(=O)c2ccc(NC(=O)c3ccc4[nH]c5ccccc5c(=O)c4c3)cc2)no1
6. CCCCOc1ccc(NC(=O)n2nc(N)c3ccccc32)cc1
7. CC(=O)N1N=C(c2ccc(Nc3nc(Nc4ccc(Cl)cc4)nc(Nc4ccc(Cl)cc4)n3)cc2)CC1c1ccc([N+](=O)[O-])cc1 (stereo not drawn)
8. CCN(CC)CCCn1cnc2ncccc2c1=O

Solution:
1: > 100 µM; 2: 27.8 µM; 3: > 100 µM; 4: > 100 µM; 5: > 100 µM; 6: > 90.5 µM; 7: 74.4 µM; 8: > 100 µM

Could I get TGI for every one of these entries?
1. Cc1nc(-c2ccccc2)c(Cc2ccccc2O)c(=O)[nH]1
2. N#Cc1cccc(OCc2nc(N)nc(N)c2-c2ccc(Cl)c(Cl)c2)c1
3. CCOc1ccc(NC(=O)C(=O)NO)cc1
4. O=c1ccc(N=Nc2ccc([N+](=O)[O-])cc2)ccc1O
5. CCOC(=O)C[C@@H]1C2(C=C[C@@]13CO3)OCC(C)(C)CO2
6. COc1ccc2c(c1O)C13CCN(C)C(C2)C1CCC1(C3)OCCO1 (stereo not drawn)
7. CC(=O)Nc1ccc(N=C2C(c3ccccc3)=C(SC3=C(c4ccccc4)C(=Nc4ccc(NC(C)=O)cc4)c4ccccc43)c3ccccc32)cc1
8. c1ccc2c(c1)Nc1ccccc1[P+]21c2ccccc2Nc2ccccc21

Solution:
1: > 100 µM; 2: > 100 µM; 3: > 100 µM; 4: > 100 µM; 5: > 100 µM; 6: > 100 µM; 7: > 100 µM; 8: 1.65 µM

Could I get TGI for every one of these entries?
1. Cc1c(C#N)c2ccccc2c2nc3ccccc3n12
2. O=[N+]([O-])c1ccc(-c2nc3ccc([N+](=O)[O-])cc3[nH]2)cc1
3. N/C(=C\C(=O)n1nc(-c2ccccc2)cc1N)c1ccccc1

Solution:
1. > 100 µM
2. > 100 µM
3. 32.3 µM
